- Target Under Test: fusion protein PRW
- Sequence (chain, as listed by the source): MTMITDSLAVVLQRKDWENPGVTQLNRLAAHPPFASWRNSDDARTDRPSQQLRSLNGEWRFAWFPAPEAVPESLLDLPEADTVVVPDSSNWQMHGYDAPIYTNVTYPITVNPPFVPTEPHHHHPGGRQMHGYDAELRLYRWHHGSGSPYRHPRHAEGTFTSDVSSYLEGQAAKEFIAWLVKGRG
Measure Name: relative cleavage efficiency

protein="OmpT protease variant OmpT D97E (protein) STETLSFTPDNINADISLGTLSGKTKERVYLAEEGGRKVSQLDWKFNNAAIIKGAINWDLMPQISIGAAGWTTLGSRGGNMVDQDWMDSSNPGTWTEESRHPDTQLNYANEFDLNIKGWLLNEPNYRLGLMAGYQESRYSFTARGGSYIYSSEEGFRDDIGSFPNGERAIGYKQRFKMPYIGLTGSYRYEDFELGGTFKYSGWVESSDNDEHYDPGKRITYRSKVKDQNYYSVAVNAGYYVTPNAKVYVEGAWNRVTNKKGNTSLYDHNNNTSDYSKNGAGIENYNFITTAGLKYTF" result="less than 3%"
protein="OmpT protease variant OmpT D97L (protein) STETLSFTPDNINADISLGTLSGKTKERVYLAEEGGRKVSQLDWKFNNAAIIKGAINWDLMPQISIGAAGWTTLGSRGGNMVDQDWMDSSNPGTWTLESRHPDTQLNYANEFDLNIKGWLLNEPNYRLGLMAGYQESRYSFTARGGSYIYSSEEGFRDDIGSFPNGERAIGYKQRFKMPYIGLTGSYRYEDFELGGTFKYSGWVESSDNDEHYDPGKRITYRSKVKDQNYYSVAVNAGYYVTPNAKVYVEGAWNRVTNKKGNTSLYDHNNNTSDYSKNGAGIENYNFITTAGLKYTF" result="less than 3%"
protein="OmpT protease variant OmpT D97N (protein) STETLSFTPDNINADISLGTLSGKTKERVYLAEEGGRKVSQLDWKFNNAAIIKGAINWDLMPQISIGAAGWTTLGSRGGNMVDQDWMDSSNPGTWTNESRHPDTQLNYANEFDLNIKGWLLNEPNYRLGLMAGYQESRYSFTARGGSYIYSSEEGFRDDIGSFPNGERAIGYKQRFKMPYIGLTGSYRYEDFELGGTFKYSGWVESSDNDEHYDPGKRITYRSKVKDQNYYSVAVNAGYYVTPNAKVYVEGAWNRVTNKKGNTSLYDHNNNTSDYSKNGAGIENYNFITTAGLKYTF" result="less than 3%"

Where these numbers come from: patent US20070077617
